- system-tested: HLA-A*24 (human)
- assay-method-text: UV-ligand exchange, anti-b2m ELISA
metric-name: peptide exchange yield

INSERT INTO assay_data (binder, result_value) VALUES
  ('PYRLIFEKF [SEQ ID NO: 281 peptide …]', '20 to 49%'),
  ('LYNKGFIYL [SEQ ID NO: 159 peptide …]', '> 75%'),
  ('IFPQFLYQF [SEQ ID NO: 186 peptide …]', '> 75%');

Next item in the queue.
// returns reported peptide exchange yield for input NYYEVHKELF [SEQ ID NO: 270 peptide …]
50 to 75%

The reported measurements were obtained from patent US20170189504A1.
